All figures here come from PubChem BioAssay (NCATS).

Experimental protocol: qHTS for differential inhibitors of proliferation of Plasmodium falciparum line GB4 (AID 1816);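 further: parasite growth measured after 72 h incubation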
Reported conditions: Plasmodium falciparum GB4 proliferation inhibition; series mostly up to 28.7 µM
Records with an inconclusive call do not appear. Active and inactive are the calls of the source. The call rests on the fitted dose curve; in most records, active means well fitted curve in the direction sought with a large enough effect; inconclusive means small, poorly fitted or top-dose-only effect, or another doubt; inactive means no such curve, though single readings can be large or run the other way.
Use one of these outcomes when replying: 1.0 = active, 0.0 = inactive

>>> class_name("CC(C)NCC(O)c1ccc(NS(C)(=O)=O)cc1 (stereo unspecified)")
0.0

Per the assay record, what outcome was assigned to CCCCS(=N)(=O)CCC(N)C(=O)O (stereo unspecified) ?
0.0

Per the assay record, what outcome was assigned to CCN1CCCC1CNC(=O)c1cc(S(N)(=O)=O)ccc1OC (stereo unspecified) ?
0.0

Per the assay record, what outcome was assigned to NC(=O)c1cccc(N)c1 ?
0.0

Per the assay record, what outcome was assigned to CC1=C(C(=O)O)N2C(=O)[C@@H](NC(=O)C(N)c3ccccc3)[C@H]2SC1 (stereo partly specified) ?
0.0

Per the assay record, what outcome was assigned to CCN(CC)CC#CCOC(=O)C(O)(c1ccccc1)C1CCCCC1 (stereo unspecified) ?
1.0
